List of growth inhibition values.
- assayRemarks: inhibition of 3D7 malaria parasite growth – strain 3D7 (AID 2306);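 further: 0% = DMSO wells and 100% = chloroquine plus artemisinin control wells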
- reportedConditions: P. falciparum 3D7 erythrocytic growth, LDH absorbance, 72 h; at 2 µM; hits give high values
Expressed in %, but write only the number.

// solved cases for growth inhibition follow
> print(dat)
                                inputsmiles  readoutvalue
1  CCOc1cc(CC)ccc1C1CCN(CCN2CCC(NC(=O)c3ccc(-c4ccc(C#N)cc4)cc3)CC2)CC1           100
2  Cc1ccc(NC(=O)c2cccc(CN3CCCN(Cc4cccc(O)c4)CC3)c2)cc1            82
3  CC1(C)N=C(N)N=C(N)N1OCCCOc1c(Cl)cc(Cl)cc1Cl            94
4      OCc1ccc2nc3c(cc2c1)-c1cccc2cccc-3c12            96

Field: next compound
Item FC(F)(F)c1ccc2nccc(NN=Cc3cccc(Cl)c3)c2c1 has what recorded growth inhibition? 97

====

- assayRemarks: inhibition of 3D7 malaria parasite growth – strain 3D7 (AID 2306);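 further: 0% = DMSO wells and 100% = chloroquine plus artemisinin control wells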
- reportedConditions: P. falciparum 3D7 erythrocytic growth, LDH absorbance, 72 h; at 2 µM; hits give high values
List of growth inhibition values.
Expressed in %, but write only the number.

// solved cases for growth inhibition follow
> print(dat)
                                   compound  readoutvalue
1  O=C(Nc1ccc(-c2csc(-c3nc4ccccc4[nH]3)c2)cc1)Nc1ccc(F)c(F)c1F           100
2  COc1ccc(OC)c(Cc2cnc3nc(N)[nH]c(=O)c3c2C)c1            98
3  CCC(Cc1cnc2nc(N)nc(N)c2n1)c1ccc(C(=O)N[C@@H](CCC(=O)O)C(=O)O)cc1 (stereo partly drawn)            93
4  CC(=O)Nc1ccc(OCCCCN(Cc2ccccc2C(F)(F)F)c2ccc(C#N)c(C(F)(F)F)c2)c(Cl)c1            98
5  CCCc1cc(=O)[nH]c(-n2nc(C)cc2NC(=O)c2cc3ccccc3o2)n1            90

Item Cc1cc(NN=Cc2cccc(F)c2)c2cccc(C)c2n1 has what recorded growth inhibition? 100

Item CC(C)C[C@@H](NC(=O)NC1CCC(CCN2[C@@H]3CC[C@H]2CC(OC(=O)C(CO)c2ccccc2)C3)CC1)C(O)(c1ccccc1)c1ccccc1 (stereo partly drawn) has what recorded growth inhibition? 95

Item N=C(N)c1ccc2nc(SCc3ccccc3)[nH]c2c1 has what recorded growth inhibition? 97

Item CCn1c(-c2nonc2N)nc2cnc(Oc3cccc(NC(=O)c4ccc(OCCCN5CCCCC5)cc4)c3)cc21 has what recorded growth inhibition? 90

Item CN(Cc1cccc(F)c1)C1CCN(c2cc(NC(=O)c3ccc(F)cc3)ccn2)C1 (stereo not drawn) has what recorded growth inhibition? 83

Item O=C(NC1CCN(Cc2ccccc2)CC1)c1ccc(-c2nc3cc(Cl)c(Cl)cc3[nH]2)s1 has what recorded growth inhibition? 103

Item Cc1[nH]c2ccc(O)cc2c1C1CCN(CCCCCNC(=O)/C=C/c2ccc(Cl)c(Cl)c2)CC1 has what recorded growth inhibition? 101

Item O=C(CCc1cnc[nH]1)Nc1ccc(-c2ccc(-c3nc4ccccc4[nH]3)cc2)cc1 has what recorded growth inhibition? 98

Item O=C(NCCN1CCOCC1)c1ccc(-c2ccc(CNCCCc3ccccc3)cc2)nc1 has what recorded growth inhibition? 97

Item CC(C)(C)SCC(O)Cn1c2ccc(Br)cc2c2cc(Br)ccc21 (stereo not drawn) has what recorded growth inhibition? 87

Item CN1CCN(CCCN(Cc2cccc(-c3ccc(CNCCc4ccccc4)cc3)c2)C(=O)Nc2ccccc2)CC1 has what recorded growth inhibition? 100
